The values you see were collected from paper PMC5438973.

Target: h5-HT1D (Homo sapiens)
Sequence (P28221 whole entry): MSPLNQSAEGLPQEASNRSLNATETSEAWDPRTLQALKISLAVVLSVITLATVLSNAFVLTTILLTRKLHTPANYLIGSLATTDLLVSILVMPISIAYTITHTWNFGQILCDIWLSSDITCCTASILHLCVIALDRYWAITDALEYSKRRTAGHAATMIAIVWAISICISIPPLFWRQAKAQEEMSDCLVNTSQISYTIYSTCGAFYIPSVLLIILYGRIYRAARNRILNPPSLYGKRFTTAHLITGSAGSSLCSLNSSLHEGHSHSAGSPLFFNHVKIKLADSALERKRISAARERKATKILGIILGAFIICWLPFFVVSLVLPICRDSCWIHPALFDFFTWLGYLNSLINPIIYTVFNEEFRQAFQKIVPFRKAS
endpoint: Ki (nM)
Express your answer in nM, writing the number without its unit.

In: Value lookup for Ki; key = C[C@H]1CN(c2ccc(C(F)(F)F)c3ccoc23)CCN1
Out: 296

---

Target: h5-HT2C (Homo sapiens)
Sequence (P28335 33-458): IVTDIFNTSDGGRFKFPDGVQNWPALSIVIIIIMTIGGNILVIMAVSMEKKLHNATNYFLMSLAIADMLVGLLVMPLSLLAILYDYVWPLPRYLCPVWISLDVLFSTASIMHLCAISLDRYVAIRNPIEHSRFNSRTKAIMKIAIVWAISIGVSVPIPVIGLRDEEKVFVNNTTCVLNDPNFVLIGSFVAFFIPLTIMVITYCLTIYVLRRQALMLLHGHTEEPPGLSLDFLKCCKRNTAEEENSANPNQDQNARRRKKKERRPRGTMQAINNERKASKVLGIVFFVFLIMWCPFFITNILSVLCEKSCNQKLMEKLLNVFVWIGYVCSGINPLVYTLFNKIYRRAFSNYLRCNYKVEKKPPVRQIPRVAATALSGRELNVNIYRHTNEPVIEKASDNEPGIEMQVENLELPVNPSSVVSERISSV
Test: GTP-γ-[35S] functional assay (SPA), AV12 cells
Details: GTPgs functional assay, human recombinant cell line
endpoint: EC50 (nM)
Write the value in nM as a bare number.

C[C@H]1CN(c2ccc(C(F)(F)F)c3ccoc23)CCN1 : 8.1

In: Find the recorded EC50 belonging to C[C@H](N)Cn1ccc2cc(F)c(Cl)cc21 and report it.
Out: 5.1

---

Target: UniProtKB P08908
Sequence (P08908 1-422): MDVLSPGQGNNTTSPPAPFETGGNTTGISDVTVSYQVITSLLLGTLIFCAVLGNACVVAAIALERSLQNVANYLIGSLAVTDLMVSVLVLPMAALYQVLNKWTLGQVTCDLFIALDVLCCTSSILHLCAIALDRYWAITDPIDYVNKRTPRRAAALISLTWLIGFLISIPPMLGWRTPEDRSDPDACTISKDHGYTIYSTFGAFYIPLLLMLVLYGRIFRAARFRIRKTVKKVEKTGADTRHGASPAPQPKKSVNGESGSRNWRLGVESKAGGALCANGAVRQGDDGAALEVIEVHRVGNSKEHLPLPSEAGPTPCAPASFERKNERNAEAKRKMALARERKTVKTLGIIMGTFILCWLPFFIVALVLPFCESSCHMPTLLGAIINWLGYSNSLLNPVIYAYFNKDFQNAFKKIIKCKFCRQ
endpoint: Ki

In: Given the entry C[C@H]1CN(c2ccc(C(F)(F)F)c3ccoc23)CCN1 , what Ki was observed with UniProtKB P08908?
Out: 205 nM

---

Tested on: Male, Wistar rats
Test: Schedule-induced polydipsia
Type: in vivo, rat
Conditions: given alone, acute dosing
endpoint: Effect on excessive drinking / amount of water consumed

Clc1cccc(N2CCNCC2)c1 [mCPP, meta-chlorophenylpiperazine, reference compound] : significantly decreased
CN(C)CCCN1c2ccccc2CCc2ccc(Cl)cc21 [Clomipramine, clomipramine] : decreased
C[C@H](N)Cn1ccc2cc(F)c(Cl)cc21 [Ro 60-0175] : significantly decreased
C[C@H](N)Cc1ccccc1 [D-amphetamine] : decreased

---

Target: h5-HT4 (Homo sapiens, UniProt Q13639)
Sequence (Q13639 whole entry): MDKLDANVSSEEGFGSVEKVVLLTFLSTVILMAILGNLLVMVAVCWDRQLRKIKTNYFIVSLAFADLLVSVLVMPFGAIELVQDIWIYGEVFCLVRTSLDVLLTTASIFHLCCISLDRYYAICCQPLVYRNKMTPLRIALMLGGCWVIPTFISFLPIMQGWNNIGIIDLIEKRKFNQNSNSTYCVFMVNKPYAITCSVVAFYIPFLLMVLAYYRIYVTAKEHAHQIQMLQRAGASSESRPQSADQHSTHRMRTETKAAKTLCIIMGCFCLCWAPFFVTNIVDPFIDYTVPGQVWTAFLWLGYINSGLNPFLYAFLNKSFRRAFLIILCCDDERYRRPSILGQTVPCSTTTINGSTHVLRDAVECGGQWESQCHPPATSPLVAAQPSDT
endpoint: Ki
I'd appreciate it if you included the unit after the number.

In: Record C[C@H]1CN(c2ccc(C(F)(F)F)c3ccoc23)CCN1 [CPD 1] : what is its Ki with h5-HT4 (Homo sapiens, UniProt Q13639)?
Out: 0.977 µM

---

Target: h5-HT1F (Homo sapiens)
Sequence (P30939 1-366): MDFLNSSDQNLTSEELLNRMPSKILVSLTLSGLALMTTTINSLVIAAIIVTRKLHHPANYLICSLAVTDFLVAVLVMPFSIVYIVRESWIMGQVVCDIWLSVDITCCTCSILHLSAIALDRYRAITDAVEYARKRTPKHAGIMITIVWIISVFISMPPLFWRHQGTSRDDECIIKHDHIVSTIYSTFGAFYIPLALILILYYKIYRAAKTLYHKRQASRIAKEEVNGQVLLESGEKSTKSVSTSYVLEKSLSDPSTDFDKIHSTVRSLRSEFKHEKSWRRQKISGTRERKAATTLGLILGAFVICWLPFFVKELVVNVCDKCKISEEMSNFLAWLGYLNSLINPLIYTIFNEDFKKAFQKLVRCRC
endpoint: Ki (nM)
Answer format: numeric, nM implied, no suffix.

In: Find the recorded Ki belonging to C[C@H]1CN(c2ccc(C(F)(F)F)c3ccoc23)CCN1 and report it.
Out: 540
